Reported Maximum inhibition rate, HUVEC-IL6 production by IL33 values for the following binders.
Biological target: T1, ST2 on the effector cells (KU812, KU812/NF-κB-1#, HUVEC, HMC-1) (human, UniProt Q01638 19-556)
T1 sequence (looked up): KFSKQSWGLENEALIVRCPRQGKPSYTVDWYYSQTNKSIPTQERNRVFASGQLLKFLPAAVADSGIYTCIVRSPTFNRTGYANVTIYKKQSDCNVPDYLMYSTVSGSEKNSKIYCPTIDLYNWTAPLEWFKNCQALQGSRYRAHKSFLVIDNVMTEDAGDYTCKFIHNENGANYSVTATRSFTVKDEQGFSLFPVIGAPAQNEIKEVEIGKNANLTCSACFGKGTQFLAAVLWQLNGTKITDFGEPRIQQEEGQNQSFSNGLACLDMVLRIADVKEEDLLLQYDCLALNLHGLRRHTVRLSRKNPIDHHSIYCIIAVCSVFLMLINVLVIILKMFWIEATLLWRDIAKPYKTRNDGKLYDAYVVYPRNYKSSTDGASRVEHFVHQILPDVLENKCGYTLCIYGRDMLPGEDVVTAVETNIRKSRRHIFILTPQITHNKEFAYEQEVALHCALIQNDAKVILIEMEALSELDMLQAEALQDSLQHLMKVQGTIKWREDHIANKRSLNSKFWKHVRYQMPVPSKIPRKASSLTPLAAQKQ
Experiment: cell-based or functional assay
ASSAY METRIC: Maximum inhibition rate, HUVEC-IL6 production by IL33 (%)

BINDER | UNIT SPEC | QUANTITATIVE RESULT
5886-156-H1L0 (antibody, human IgG4 S228P, kappa, V domains shown, Humanized antibody expressed in CHO-K1, purified by protein A) VH: QVQLQESGPGLVKPSQTLSLTCTVSGYSITSDYAWNWIRQPPGKGLEWIGYIDYSGSTTYNPSLKSRVTISRDTSKNQFSLKLSSVTAADTAVYYCASTVIDSMDYWGQGTLVTVSS VL: DIVLTQSPASLAVSPGQRATITCRASKSVSTSGHSYMHWYQQKPGQPPKLLIYLASNLESGVPARFSGSGSGTDFTLTINPVEANDTANYYCQHSREFPFTFGQGTKVEIKR | % | 87.9
5887-41-H1L0 (antibody, human IgG4 S228P, kappa, V domains shown, Humanized antibody) VH: QVQLQESGPGLVKPSQTLSLTCTVSGYSITSDYAWDWIRQPPGKGLEWIGYIRYSGDTYYNPSLKSRVTISRDTSKNQFSLKLSSVTAADTAVYYCATTMMDTMDYWGQGTLVTVSS VL: DIVLTQSPASLAVSPGQRATITCRASKSVSTSGNSYMHWYQQKPGQPPKLLIYLASNLESGVPARFSGSGSGTDFTLTINPVEANDTANYYCQHSREFPLTFGQGTKLEIKR | % | 93.2
5888-379-H2L1 (antibody, human IgG4 S228P, kappa, V domains shown, Humanized antibody) VH: QVQLVQSGAEVKKPGASVKVSCKASGYTFINYGMNWVRQAPGQRLEWMGWINTYIGEPTYGDNFKGRVTITRDTSASTAYMELSSLRSEDTAVYYCAREGDAFAYWGQGTLVTVSS VL: DIQMTQSPSSLSASVGDRVTITCKSSQSLLYSGNQNNYLAWYQQKPGKVPKLLIYGASTRESGVPSRFSGSGSGTDFTLTISSLQPEDLATYYCQNDHSYPYTFGGGTKVEIKR | % | 71.6
5888-153-H0L1 (antibody, human IgG4 S228P, kappa, V domains shown, Humanized antibody) VH: QVQLVQSGAEVKKPGASVKVSCKASGYTFTDYELHWVRQAPGQGLEWMGTIDPETGDTVYNQKFKARVTMTRDTSTSTVYMELSSLRSEDTAVYYCARAFYNDYDDGFAYWGQGTLVTVSS VL: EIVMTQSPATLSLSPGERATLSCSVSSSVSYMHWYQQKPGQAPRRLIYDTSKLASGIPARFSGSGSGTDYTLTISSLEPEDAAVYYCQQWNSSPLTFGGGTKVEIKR | % | 93
